Data origin: PubChem BioAssay AID2060496

# System: 276233-004-R-J1-PDC complex spheroid viability
# run description: Anticancer human tumor 276233-004-R-J1-PDC patient-derived colon adenocarcinoma cell line growth inhibition [GQUAD]
# condition: second compound 0.316 µM; first compound 0.0999 µM; stronger effect = lower value
measurement kind: viability, T/C (%)
Write the value in % as a bare number.

Reference set (3 entries):
molecule	viability, T/C, %
CC[C@@]1(O)C(=O)OCc2c1cc1n(c2=O)Cc2cc3c(CN(C)C)c(O)ccc3nc2-1 + Cc1[nH]c2ccc(F)cc2c1-c1nc2c3cccnc3c3ncccc3c2[nH]1	99.6
Cc1[nH]c2ccccc2c1CCNCc1ccc(/C=C/C(=O)NO)cc1 + CN(C)c1ccc(Nc2c3ccc(NC(=O)CCN4CCCC4)cc3nc3cc(NC(=O)CCN4CCCC4)ccc23)cc1	85
Cc1[nH]c2ccccc2c1CCNCc1ccc(/C=C/C(=O)NO)cc1 + Cc1cnc(CNC(=O)c2c(=O)c3ccc(N4CCCN(C)CC4)nc3n3c2sc2ccccc23)cn1	57.9

Name the reported viability, T/C value associated with the molecule CC[C@@]1(O)C(=O)OCc2c1cc1n(c2=O)Cc2cc3c(CN(C)C)c(O)ccc3nc2-1 + CN(C)c1ccc(Nc2c3ccc(NC(=O)CCN4CCCC4)cc3nc3cc(NC(=O)CCN4CCCC4)ccc23)cc1
64.8

Now try CCc1c2c(nc3ccc(O)cc13)-c1cc3c(c(=O)n1C2)COC(=O)[C@]3(O)CC + Cc1[nH]c2ccc(F)cc2c1-c1nc2c3cccnc3c3ncccc3c2[nH]1 .
97.2

Same thing, different molecule: CC[C@@]1(O)C(=O)OCc2c1cc1n(c2=O)Cc2cc3c(CN(C)C)c(O)ccc3nc2-1 + Cc1cnc(CNC(=O)c2c(=O)c3ccc(N4CCCN(C)CC4)nc3n3c2sc2ccccc23)cn1
87.7

====

# System: 276233-004-R-J1-PDC complex spheroid viability
# run description: Anticancer human tumor 276233-004-R-J1-PDC cell line growth inhibition [GQUAD]; active means viability on the fitted dose curve at most 10% of control; inactive means the rest;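 further: spheroids exposed to drugs for seven days; 100% = DMSO vehicle control viability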
# condition: second compound 0.316 µM; first compound 10 µM
# output must be one of 1 (yes) = active, 0 (no) = inactive

Which outcome did this test record for the molecule O=C(NO)c1cnc(N2CCN(S(=O)(=O)c3ccc4ccccc4c3)CC2)nc1 + Cc1cnc(CNC(=O)c2c(=O)c3ccc(N4CCCN(C)CC4)nc3n3c2sc2ccccc23)cn1 ?
1 (yes)

Here is the next molecule: O=C(c1cc(Cc2n[nH]c(=O)c3ccccc23)ccc1F)N1CCN(C(=O)C2CC2)CC1 + Cc1cnc(CNC(=O)c2c(=O)c3ccc(N4CCCN(C)CC4)nc3n3c2sc2ccccc23)cn1
0 (no)

Okay, and O=C(NO)c1cnc(N2CCN(S(=O)(=O)c3ccc4ccccc4c3)CC2)nc1 + Cc1[nH]c2ccc(F)cc2c1-c1nc2c3cccnc3c3ncccc3c2[nH]1 ?
1 (yes)

O=c1[nH]cc(F)c(=O)[nH]1 + Cc1cnc(CNC(=O)c2c(=O)c3ccc(N4CCCN(C)CC4)nc3n3c2sc2ccccc23)cn1 ?
0 (no)

COc1cc(C2c3cc4c(cc3C(OC3OC5COC(C)OC5C(O)C3O)C3COC(=O)C23)OCO4)cc(OC)c1O (stereo unspecified) + Cc1cnc(CNC(=O)c2c(=O)c3ccc(N4CCCN(C)CC4)nc3n3c2sc2ccccc23)cn1 ?
0 (no)

====

# Tested on: 276233-004-R-J1-PDC complex spheroid viability
# run description: Anticancer human tumor 276233-004-R-J1-PDC cell line growth inhibition [GQUAD];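 further: spheroids exposed to drugs for seven days; 100% = DMSO vehicle control viability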
# condition: second compound 0.316 µM; first compound 10 µM; stronger effect = lower value
# Source text: DNA G-quadruplex Stabilizer Agents in Combinations in Complex Spheroids A high-throughput screen of multi-cell type tumor spheroids was designed to identify active combinations of DNA G-quadruplex stabilizer agents and targeted small molecules. […] Compounds. […] If the clinical Cmax for an agent had not been determined, the highest concentration tested was 10 microM. […]
measurement kind: viability, T/C (%)
The reply should contain only the number, in %.

compound	observed measurement
CC1COCCN1c1cc(C2(S(C)(=N)=O)CC2)nc(-c2ccnc3[nH]ccc23)n1 (stereo not drawn) + Cc1[nH]c2ccc(F)cc2c1-c1nc2c3cccnc3c3ncccc3c2[nH]1	63.6
CCCS(=O)(=O)Nc1ccc(F)c(C(=O)c2c[nH]c3ncc(-c4ccc(Cl)cc4)cc23)c1F + Cc1[nH]c2ccc(F)cc2c1-c1nc2c3cccnc3c3ncccc3c2[nH]1	61.9

Look at this compound and give its reported viability, T/C. COc1cc(C2c3cc4c(cc3C(OC3OC5COC(C)OC5C(O)C3O)C3COC(=O)C23)OCO4)cc(OC)c1O (stereo not drawn) + CN(C)c1ccc(Nc2c3ccc(NC(=O)CCN4CCCC4)cc3nc3cc(NC(=O)CCN4CCCC4)ccc23)cc1
61.3
